These entries and their values trace back to patent US12522596B2.

# method.summary: Pharmacokinetics in hGLP-1R mice after oral dosing
# Type: in vivo, male C57BL/6J hGLP-1R mouse
# run.conditions: male, C57BL/6J hGLP-1R, mouse, plasma, po, 0.3 mg/kg, hGLP-1R mouse plasma, PO 0.3 mg/kg, 4 h, individual animals; read-out: Concentration
result.type: concentration at 4 h

In plain terms, N#Cc1ccc(COc2cccc(C3CCN(Cc4nc5ccc(C(=O)O)cc5n4C[C@@H]4CCO4)CC3)n2)c(F)c1 [Reference Compound A, reference compound] has a documented concentration at 4 h of < 1 ng/mL

###

# method.summary: Pharmacokinetics in hGLP-1R mice after oral dosing
# Format: in vivo, male C57BL/6J hGLP-1R mouse
# run.conditions: male, C57BL/6J hGLP-1R, mouse, plasma, po, 3 mg/kg, hGLP-1R mouse plasma, PO 3 mg/kg, mean; read-out: MRT0-last
result.type: MRT last (h)
Report as a plain number; the unit h is understood.

The reported value for N#Cc1ccc(COc2cccc(C3CCN(Cc4nc5ccc(C(=O)O)cc5n4Cc4cncs4)CC3)n2)c(F)c1 [Compound 2] in terms of MRT last is 1.66

###

# method.summary: Pharmacokinetics in hGLP-1R mice after oral dosing
# Assay type: in vivo, male C57BL/6J hGLP-1R mouse
# run.conditions: male, C57BL/6J hGLP-1R, mouse, plasma, po, 0.3 mg/kg, hGLP-1R mouse plasma, PO 0.3 mg/kg, individual mice; read-out: MRT0-inf
result.type: MRT inf (min)
Quick reminder: number only, in min, skip the unit.

Entry N#Cc1ccc(COc2cccc(C3CCN(Cc4nc5ccc(C(=O)O)cc5n4C[C@@H]4CCO4)CC3)n2)c(F)c1 [Reference Compound A, reference compound] ; MRT inf = 56.6

###

Reported values of half-life for individual entries
# method.summary: Pharmacokinetics in hGLP-1R mice after oral dosing
# Format: in vivo, male C57BL/6J hGLP-1R mouse
# run.conditions: male, C57BL/6J hGLP-1R, mouse, plasma, po, 0.3 mg/kg, hGLP-1R mouse plasma, PO 0.3 mg/kg, mean; read-out: T1/2 (converted)
Include the unit right after the number.

N#Cc1ccc(COc2cccc(C3CCN(Cc4nc5ccc(C(=O)O)cc5n4C[C@@H]4CCO4)CC3)n2)c(F)c1 [Reference Compound A, reference compound] = 0.604 h

Now for the molecule whose half-life we want.
The measured half-life associated with N#Cc1ccc(COc2cccc(C3CCN(Cc4nc5ccc(C(=O)O)cc5n4Cc4cncs4)CC3)n2)c(F)c1 reads 1.4 h

###

# method.summary: Pharmacokinetics in hGLP-1R mice after oral dosing
# Assay type: in vivo, male C57BL/6J hGLP-1R mouse
# run.conditions: male, C57BL/6J hGLP-1R, mouse, plasma, po, 3 mg/kg, hGLP-1R mouse plasma, PO 3 mg/kg, mean; read-out: Tmax
result.type: Tmax
Give me the value, and tack the unit on after it.

response.value for N#Cc1ccc(COc2cccc(C3CCN(Cc4nc5ccc(C(=O)O)cc5n4Cc4cncs4)CC3)n2)c(F)c1 (field: Tmax) = 25 min

###

# Tested on: rat hepatocytes
# method.summary: Metabolic stability in rat hepatocytes
# Assay type: in vitro ADME
result.type: CLint relative to reference standard

N#Cc1ccc(COc2ccnc(C3CCN(Cc4nc5ccc(C(=O)O)cc5n4Cc4cncs4)CC3)n2)c(F)c1 = significantly lower
Cc1ncsc1Cn1c(CN2CCC3(c4cccc(OCc5ccc(C#N)cc5F)n4)CC3C2)nc2ccc(C(=O)O)cc21 (stereo not shown) = significantly increased
N#Cc1cnc(COc2cccc(C3CCN(Cc4nc5ccc(C(=O)O)cc5n4Cc4cncs4)CC3)n2)c(F)c1 = significantly lower
CC1(c2ccc(C#N)cc2F)Oc2cccc(C3CCN(Cc4nc5ccc(C(=O)O)cc5n4Cc4cncs4)CC3)c2O1 (stereo not shown) = significantly lower
N#Cc1ccc(COc2cccc(C34CCN(Cc5nc6ccc(C(=O)O)cc6n5Cc5cncs5)CC3C4)n2)c(F)c1 (stereo not shown) = significantly increased

Form field CLint relative to reference standard, entry [2H]C([2H])(Oc1cccc(C2CCN(Cc3nc4ccc(C(=O)O)cc4n3Cc3cncs3)CC2)n1)c1ccc(Cl)cc1F : significantly lower

Item: N#Cc1ccc(COc2cccc(N3CCN(Cc4nc5ccc(C(=O)O)cc5n4Cc4cncs4)CC3)n2)c(F)c1 | CLint relative to reference standard: significantly lower

###

# method.summary: Pharmacokinetics in hGLP-1R mice after oral dosing
# Type: in vivo, male C57BL/6J hGLP-1R mouse
# run.conditions: male, C57BL/6J hGLP-1R, mouse, plasma, po, 0.3 mg/kg, hGLP-1R mouse plasma, PO 0.3 mg/kg, 2 h
result.type: concentration at 2 h (ng/mL)
I only need the number, in ng/mL, no unit after it.

N#Cc1ccc(COc2cccc(C3CCN(Cc4nc5ccc(C(=O)O)cc5n4C[C@@H]4CCO4)CC3)n2)c(F)c1 [Reference Compound A, reference compound] = 3.37

Lab note: next compound to report on.
Documented concentration at 2 h of N#Cc1ccc(COc2cccc(C3CCN(Cc4nc5ccc(C(=O)O)cc5n4Cc4cncs4)CC3)n2)c(F)c1 : 10.6

###

# method.summary: Pharmacokinetics in hGLP-1R mice after oral dosing
# Type: in vivo, male C57BL/6J hGLP-1R mouse
# run.conditions: male, C57BL/6J hGLP-1R, mouse, plasma, po, 3 mg/kg, hGLP-1R mice, total, PO 3.0 mg/kg; read-out: AUClast Mean
# Experimental: IPGTT (120 min)—PK bleeding: 40 μL blood samples (all treatment groups) were collected from mice under the jaw at IPGTT-120 min after blood glucose measurement into pre-chilled EDTA-2K tubes. Blood samples were processed for plasma by centrifugation at 4° C., 3200×g for 10 min. […] The linear/log trapezoidal rule was applied in obtaining the PK parameters. Individual plasma concentration values that were below the lower limit of quantitation (LOQ) were excluded from the PK parameter calculation. […]
result.type: AUC(0-t) (ng·h/mL)
Give your result in ng·h/mL as a bare value.

Form field AUC(0-t), entry N#Cc1ccc(COc2cccc(C3CCN(Cc4nc5ccc(C(=O)O)cc5n4Cc4cncs4)CC3)n2)c(F)c1 : 2440

###

# AUC0-inf values compiled below
# method.summary: Pharmacokinetics in hGLP-1R mice after oral dosing
# Type: in vivo, male C57BL/6J hGLP-1R mouse
# run.conditions: male, C57BL/6J hGLP-1R, mouse, plasma, po, 1 mg/kg, hGLP-1R mouse plasma, PO 1 mg/kg, individual mice; read-out: AUC0-inf
Response body: numeric value in ng·h/mL, unit text excluded.

N#Cc1ccc(COc2cccc(C3CCN(Cc4nc5ccc(C(=O)O)cc5n4Cc4cncs4)CC3)n2)c(F)c1 = 507

Please examine the following record next.
What the record says about N#Cc1ccc(COc2cccc(C3CCN(Cc4nc5ccc(C(=O)O)cc5n4C[C@@H]4CCO4)CC3)n2)c(F)c1 [Reference Compound A, reference compound] : AUC0-inf is 105

###

# method.summary: Pharmacokinetics in hGLP-1R mice after oral dosing
# Format: in vivo, male C57BL/6J hGLP-1R mouse
# run.conditions: male, C57BL/6J hGLP-1R, mouse, plasma, po, 3 mg/kg, hGLP-1R mouse plasma, PO 3 mg/kg, mean; read-out: AUC0-inf
result.type: AUC0-inf (µg·h/mL)
Just the number in µg·h/mL, nothing appended.

So for N#Cc1ccc(COc2cccc(C3CCN(Cc4nc5ccc(C(=O)O)cc5n4Cc4cncs4)CC3)n2)c(F)c1 , the logged AUC0-inf turned out to be 2.62

###

# method.summary: Metabolic stability in human hepatocytes
# Format: in vitro ADME
# run.conditions: cryopreserved hepatocytes; human hepatocytes, 1 μM
Listing of recorded CLint scaled at 1 μM by entry.
Write the number in mL/min/kg without appending the unit.

# annotated cases, reported CLint scaled at 1 μM shown
O=C(O)c1ccc2nc(CN3CCC(c4nccc(OCc5ccc(Cl)cc5F)n4)CC3)n(Cc3cncs3)c2c1 = 42.3
N#Cc1ccc(COc2cccc(C3CCN(Cc4nc5ccc(C(=O)O)cc5n4Cc4cncs4)CC3)n2)c(F)c1 = 15.5

In the following, a different compound is considered.
response.value for N#Cc1ccc(COc2cccc(C3CCN(Cc4nc5ccc(C(=O)O)cc5n4C[C@@H]4CCO4)CC3)n2)c(F)c1 [Reference Compound A, reference compound] (field: CLint scaled at 1 μM) = 7.18

###

# method.summary: Pharmacokinetics in hGLP-1R mice after oral dosing
# Format: in vivo, male C57BL/6J hGLP-1R mouse
# run.conditions: male, C57BL/6J hGLP-1R, mouse, plasma, po, 1 mg/kg, hGLP-1R mouse plasma, PO 1 mg/kg, mean; read-out: MRT0-last
Measured MRT last accompanies every entry in the list below.
Reply with just the number (in h).

N#Cc1ccc(COc2cccc(C3CCN(Cc4nc5ccc(C(=O)O)cc5n4C[C@@H]4CCO4)CC3)n2)c(F)c1 [Reference Compound A, reference compound] = 1.81

Lab note: next molecule to report on.
So, N#Cc1ccc(COc2cccc(C3CCN(Cc4nc5ccc(C(=O)O)cc5n4Cc4cncs4)CC3)n2)c(F)c1 ? Its MRT last was 1.35
